- system-tested: DDX3X N-IDR (human, UniProt O00571 1-132)
- Sequence (O00571 1-132): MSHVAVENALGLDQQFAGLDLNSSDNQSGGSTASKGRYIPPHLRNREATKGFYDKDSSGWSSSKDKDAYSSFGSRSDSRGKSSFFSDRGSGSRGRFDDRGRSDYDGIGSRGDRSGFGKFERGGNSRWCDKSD
- assay-procedure: EMSA; 125 mM KCl; EMSA: 20 mM K-phosphate pH 7.0, 125 mM KCl, 1 mM DTT, 0.005% Tween-20, 10% glycerol (1 mM ATP-Mg for MBP-FL/Core-C), gel at room temperature; ITC: 20 mM K-phosphate pH 7.0, 50 mM KCl, 25 C; NMR: 200 mM KCl (also 120 mM), 10 C, 50 uM
- condition-notes: protein: recombinant; tags: His6-SUMO tag cleaved (Ulp1); label: 5'-FAM; G4 monomer
quantity-name: Kd (nM)
Numbers only here, please. The scale is nM.

Entry UGUGGGAGGGGCGGGUCUGGGUGC (structured_RNA) [FAM-NRAS GQ RNA] ; Kd = 54
